- Target system: Proto-oncogene tyrosine-protein kinase Src (Homo sapiens)
- Assay protocol: Compounds were tested for binding to Src SH2 using a fluorescence polarization binding assay according to methods previously described. IC50 values were assigned to individual compounds according to their competitive binding affinity versus a high-affinity peptide probe, fluorescein-pTyr-pTyr-pTyr-Ile-Glu-NH2.
What pIC50 was measured for each of the following?
Quick note: pIC50 values are minus log10 of concentrations in mol/L.

query: // fetch pIC50 given entry "NC(=O)c1cc(CNC(=O)c2ccc(OP(=O)(O)O)cc2)ccc1OCC1CCCCC1"
result: 5.19

query: // fetch pIC50 given entry COc1ccc(C(C)NC(=O)C(Cc2ccc(OP(=O)(O)O)cc2)NC(C)=O)cc1C(N)=O (stereo not drawn)
result: 4.43
